System: 931267-113-T-J1-PDC multicell spheroid viability
Test: Anticancer human tumor 931267-113-T-J1-PDC patient-derived colon adenocarcinoma cell line growth inhibition [PI3K]
Conditions: curve of first compound; second compound 0.01 µM
pIC50: −log10 of the molar value.
readout-label: pIC50

Recorded result, Cn1ncnc1[C@H]1c2n[nH]c(=O)c3cc(F)cc(c23)N[C@@H]1c1ccc(F)cc1 + CC(Nc1ccc2c(c1)OCCn1cc(N3C(=O)OCC3C(F)F)nc1-2)C(N)=O , pIC50: < 7.00

Given item CCCS(=O)(=O)Nc1ccc(F)c(C(=O)c2c[nH]c3ncc(-c4ccc(Cl)cc4)cc23)c1F + COc1c(OCCCN2CCOCC2)ccc2c3n(c(=NC(=O)c4cnc(N)nc4)nc12)CCN3 , the value recorded as its pIC50 is 5.22

What the record says about Cn1nccc1Nc1nccc(-c2ccn(C(CO)c3ccc(Cl)c(F)c3)c(=O)c2)n1 (stereo unspecified) + CC(Nc1ccc2c(c1)OCCn1cc(N3C(=O)OCC3C(F)F)nc1-2)C(N)=O : pIC50 is 5.44

Documented pIC50 of CC1(C)CCC(CN2CCN(c3ccc(C(=O)NS(=O)(=O)c4ccc(NCC5CCOCC5)c([N+](=O)[O-])c4)c(Oc4cnc5[nH]ccc5c4)c3)CC2)=C(c2ccc(Cl)cc2)C1 + COc1c(OCCCN2CCOCC2)ccc2c3n(c(=NC(=O)c4cnc(N)nc4)nc12)CCN3 : < 5.00

Sure, the documented pIC50 for C[C@@H](NC(=O)c1ncnc(N)c1Cl)c1ncc(C(=O)Nc2cc(C(F)(F)F)c(Cl)cn2)s1 + CC(Nc1ccc2c(c1)OCCn1cc(N3C(=O)OCC3C(F)F)nc1-2)C(N)=O is < 5.00

// Cn1ncc(Cl)c1-c1cc(C(=O)NC(CN)Cc2cccc(F)c2)sc1Cl (stereo unspecified) + COc1c(OCCCN2CCOCC2)ccc2c3n(c(=NC(=O)c4cnc(N)nc4)nc12)CCN3 : pIC50 value = 5.24

Sure, the documented pIC50 for C=CC(=O)N1CCN(c2nc(=O)n(-c3c(C)ccnc3C(C)C)c3nc(-c4c(O)cccc4F)c(F)cc23)C(C)C1 (stereo unspecified) + COc1c(OCCCN2CCOCC2)ccc2c3n(c(=NC(=O)c4cnc(N)nc4)nc12)CCN3 is < 5.00

compound CCN1CCN(Cc2ccc(Nc3ncc(F)c(-c4cc(F)c5nc(C)n(C(C)C)c5c4)n3)nc2)CC1 + COc1c(OCCCN2CCOCC2)ccc2c3n(c(=NC(=O)c4cnc(N)nc4)nc12)CCN3 , pIC50 observed: < 6.00

In plain terms, CNC(=O)c1ccc(N2C(=S)N(c3ccc(C#N)c(C(F)(F)F)c3)C(=O)C2(C)C)cc1F + CC(Nc1ccc2c(c1)OCCn1cc(N3C(=O)OCC3C(F)F)nc1-2)C(N)=O has a documented pIC50 of < 5.00

For record CC(C)NCC(C(=O)N1CCN(c2ncnc3c2C(C)CC3O)CC1)c1ccc(Cl)cc1 (stereo unspecified) + COc1c(OCCCN2CCOCC2)ccc2c3n(c(=NC(=O)c4cnc(N)nc4)nc12)CCN3 the listed pIC50 is < 5.00

Please fill in: pIC50 reported for CC(=O)c1c(C)c2cnc(Nc3ccc(N4CCNCC4)cn3)nc2n(C2CCCC2)c1=O + CC(Nc1ccc2c(c1)OCCn1cc(N3C(=O)OCC3C(F)F)nc1-2)C(N)=O = < 7.00

---

Assignment: determine reported viability, T/C for the given compounds.
System: 931267-113-T-J1-PDC multicell spheroid viability
Test: Anticancer human tumor 931267-113-T-J1-PDC cell line growth inhibition [PI3K];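 further: viability read 7 days after compound addition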
Conditions: second compound 0.00316 µM; first compound 10 µM; stronger effect = lower value
# number only, unit % dropped from output

Quick note, viability, T/C for CC(C)NCC(C(=O)N1CCN(c2ncnc3c2C(C)CC3O)CC1)c1ccc(Cl)cc1 (stereo not drawn) + CC(Nc1ccc2c(c1)OCCn1cc(N3C(=O)OCC3C(F)F)nc1-2)C(N)=O landed at 67.3

Noted for C[C@@H](NC(=O)c1ncnc(N)c1Cl)c1ncc(C(=O)Nc2cc(C(F)(F)F)c(Cl)cn2)s1 + COc1c(OCCCN2CCOCC2)ccc2c3n(c(=NC(=O)c4cnc(N)nc4)nc12)CCN3 : its viability, T/C reads 76

The compound identified as C=CC(=O)N1CCN(c2nc(=O)n(-c3c(C)ccnc3C(C)C)c3nc(-c4c(O)cccc4F)c(F)cc23)C(C)C1 (stereo not drawn) + CC(Nc1ccc2c(c1)OCCn1cc(N3C(=O)OCC3C(F)F)nc1-2)C(N)=O registered its viability, T/C at 107

---

Tested on: 931267-113-T-J1-PDC multicell spheroid viability
Assay: Anticancer human tumor 931267-113-T-J1-PDC cell line growth inhibition [PI3K];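 further: viability read 7 days after compound addition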
Details: second compound 1 µM; first compound 1 µM; stronger effect = lower value
readout-label: viability, T/C (%)
State the answer as a number, implicitly in %.

The compound identified as CNC(=O)c1ccc(N2C(=S)N(c3ccc(C#N)c(C(F)(F)F)c3)C(=O)C2(C)C)cc1F + CC(Nc1ccc2c(c1)OCCn1cc(N3C(=O)OCC3C(F)F)nc1-2)C(N)=O registered its viability, T/C at 70

The reported value for CNC(=O)c1ccc(N2C(=S)N(c3ccc(C#N)c(C(F)(F)F)c3)C(=O)C2(C)C)cc1F + CC(Nc1ncnc2nc[nH]c12)c1cc2cccc(Cl)c2c(=O)n1-c1ccccc1 in terms of viability, T/C is 102

The compound identified as CC(C)NCC(C(=O)N1CCN(c2ncnc3c2C(C)CC3O)CC1)c1ccc(Cl)cc1 (stereo unspecified) + CC(Nc1ncnc2nc[nH]c12)c1cc2cccc(Cl)c2c(=O)n1-c1ccccc1 registered its viability, T/C at 99.6

Per the record, Cn1nccc1Nc1nccc(-c2ccn(C(CO)c3ccc(Cl)c(F)c3)c(=O)c2)n1 (stereo unspecified) + CC(Nc1ncnc2nc[nH]c12)c1cc2cccc(Cl)c2c(=O)n1-c1ccccc1 has viability, T/C of 86.2

Lab note: CC(Cn1ccc(-c2ccc(C#N)c(Cl)c2)n1)NC(=O)c1cc(C(C)O)[nH]n1 (stereo unspecified) + CC(Nc1ncnc2nc[nH]c12)c1cc2cccc(Cl)c2c(=O)n1-c1ccccc1 gave viability, T/C of 118

viability, T/C reading for CCN1CCN(Cc2ccc(Nc3ncc(F)c(-c4cc(F)c5nc(C)n(C(C)C)c5c4)n3)nc2)CC1 + CC(Nc1ncnc2nc[nH]c12)c1cc2cccc(Cl)c2c(=O)n1-c1ccccc1 : 86

The compound identified as C[C@@H](NC(=O)c1ncnc(N)c1Cl)c1ncc(C(=O)Nc2cc(C(F)(F)F)c(Cl)cn2)s1 + Cc1nc(NC(=O)N2CCCC2C(N)=O)sc1-c1ccnc(C(C)(C)C(F)(F)F)c1 registered its viability, T/C at 81.1

// field: viability, T/C; key: C#Cc1c(F)ccc2cc(O)cc(-c3ncc4c(N5CC6CCC(C5)N6)nc(OCC56CCCN5CC(F)C6)nc4c3F)c12 (stereo unspecified) + Cc1nc(NC(=O)N2CCCC2C(N)=O)sc1-c1ccnc(C(C)(C)C(F)(F)F)c1 ; value = 28.3

Lab book: viability, T/C of CCN1CCN(Cc2ccc(Nc3ncc(F)c(-c4cc(F)c5nc(C)n(C(C)C)c5c4)n3)nc2)CC1 + COc1c(OCCCN2CCOCC2)ccc2c3n(c(=NC(=O)c4cnc(N)nc4)nc12)CCN3 noted as 36.7

The recorded viability, T/C for entry CNC(=O)c1ccc(N2C(=S)N(c3ccc(C#N)c(C(F)(F)F)c3)C(=O)C2(C)C)cc1F + Cc1nc(NC(=O)N2CCCC2C(N)=O)sc1-c1ccnc(C(C)(C)C(F)(F)F)c1 equals 85.1

Just so you know, measured viability, T/C for C=CC(=O)N1CCN(c2nc(=O)n(-c3c(C)ccnc3C(C)C)c3nc(-c4c(O)cccc4F)c(F)cc23)C(C)C1 (stereo unspecified) + CC(Nc1ncnc2nc[nH]c12)c1cc2cccc(Cl)c2c(=O)n1-c1ccccc1 came out at 105

Entry Cn1nccc1Nc1nccc(-c2ccn(C(CO)c3ccc(Cl)c(F)c3)c(=O)c2)n1 (stereo unspecified) + CC(Nc1ccc2c(c1)OCCn1cc(N3C(=O)OCC3C(F)F)nc1-2)C(N)=O — recorded viability, T/C = 51

viability, T/C in this record for C#Cc1c(F)ccc2cc(O)cc(-c3ncc4c(N5CC6CCC(C5)N6)nc(OCC56CCCN5CC(F)C6)nc4c3F)c12 (stereo unspecified) + COc1c(OCCCN2CCOCC2)ccc2c3n(c(=NC(=O)c4cnc(N)nc4)nc12)CCN3 : 8.76

Per the record, C=CC(=O)N1CCN(c2nc(=O)n(-c3c(C)ccnc3C(C)C)c3nc(-c4c(O)cccc4F)c(F)cc23)C(C)C1 (stereo unspecified) + Cc1nc(NC(=O)N2CCCC2C(N)=O)sc1-c1ccnc(C(C)(C)C(F)(F)F)c1 has viability, T/C of 83.7

viability, T/C for CC1(C)CCC(CN2CCN(c3ccc(C(=O)NS(=O)(=O)c4ccc(NCC5CCOCC5)c([N+](=O)[O-])c4)c(Oc4cnc5[nH]ccc5c4)c3)CC2)=C(c2ccc(Cl)cc2)C1 + CC(Nc1ncnc2nc[nH]c12)c1cc2cccc(Cl)c2c(=O)n1-c1ccccc1 is 103

Noted for CCCS(=O)(=O)Nc1ccc(F)c(C(=O)c2c[nH]c3ncc(-c4ccc(Cl)cc4)cc23)c1F + CC(Nc1ncnc2nc[nH]c12)c1cc2cccc(Cl)c2c(=O)n1-c1ccccc1 : its viability, T/C reads 110

Measured viability, T/C, CCCS(=O)(=O)Nc1ccc(F)c(C(=O)c2c[nH]c3ncc(-c4ccc(Cl)cc4)cc23)c1F + Cc1nc(NC(=O)N2CCCC2C(N)=O)sc1-c1ccnc(C(C)(C)C(F)(F)F)c1 : 96.6

// viability, T/C lookup, compound = CC1(C)CCC(Nc2ncc(C(F)(F)F)c(-c3c[nH]c4c(P(C)(C)=O)c(C#N)ccc34)n2)CN1 (stereo unspecified) + CC(Nc1ccc2c(c1)OCCn1cc(N3C(=O)OCC3C(F)F)nc1-2)C(N)=O , result: 65.2

Sample Cn1ncc(Cl)c1-c1cc(C(=O)NC(CN)Cc2cccc(F)c2)sc1Cl (stereo unspecified) + Cc1nc(NC(=O)N2CCCC2C(N)=O)sc1-c1ccnc(C(C)(C)C(F)(F)F)c1 ; viability, T/C observed: 68.7

Field viability, T/C (entry CC1(C)CCC(CN2CCN(c3ccc(C(=O)NS(=O)(=O)c4ccc(NCC5CCOCC5)c([N+](=O)[O-])c4)c(Oc4cnc5[nH]ccc5c4)c3)CC2)=C(c2ccc(Cl)cc2)C1 + COc1c(OCCCN2CCOCC2)ccc2c3n(c(=NC(=O)c4cnc(N)nc4)nc12)CCN3 ) reads 36.1

Quick note, viability, T/C for CC1(C)CCC(Nc2ncc(C(F)(F)F)c(-c3c[nH]c4c(P(C)(C)=O)c(C#N)ccc34)n2)CN1 (stereo unspecified) + CC(Nc1ncnc2nc[nH]c12)c1cc2cccc(Cl)c2c(=O)n1-c1ccccc1 landed at 82.7
